test: Cytotoxicity against human HFF cells assessed as cell growth inhibition measured after 48 hrs by MTT assay; assay type: toxicity, cell-based; conditions: time 48 hrs, read-out: TC50
endpointLabel: CC50 at 48 h (µM)
# output: bare number, implied unit µM

GET /value?item= C[C@H]1[C@H](OC(=O)CCC(=O)O)O[C@@H]2O[C@@]3(C)CC[C@H]4[C@H](C)CC[C@@H]1[C@@]24OO3 [ARTESUNATE] &field=CC50 at 48 h returns 717

---

test system: HT-29; assay: cells; conditions: Homo sapiens, HT-29, 72 h
endpointLabel: pIC50
In simple prose, pIC50 is minus the logarithm base ten of a concentration in moles per litre.

Example results:
{"molecule": "C[C@@H]1CC[C@H]2[C@@H](C)C(CCSCCC3O[C@@H]4O[C@]5(C)CC[C@@H]6[C@@H](C)CC[C@H]([C@@H]3C)[C@]46OO5)O[C@H]3O[C@@]4(C)CC[C@@H]1[C@]32OO4 (stereo partly specified)", "pIC50": 6.41}
{"molecule": "CO[C@@]12[C@H](COC(N)=O)C3=C(C(=O)C(C)=C(N)C3=O)N1C[C@@H]1N[C@@H]12", "pIC50": 7.22}
{"molecule": "C[C@@H]1CC[C@H]2[C@@H](C)C(OCCN/C(=N/c3ccc(C(F)(F)F)cc3)NCCOC3O[C@@H]4O[C@]5(C)CC[C@@H]6[C@@H](C)CC[C@H]([C@@H]3C)[C@]46OO5)O[C@H]3O[C@@]4(C)CC[C@@H]1[C@]32OO4 (stereo partly specified)", "pIC50": 7.22}
{"molecule": "CC(=O)O[C@H]1C(=O)[C@@]2(C)[C@H]([C@H](OC(=O)c3ccccc3)[C@]3(O)C[C@H](OC(=O)[C@H](O)[C@@H](NC(=O)c4ccccc4)c4ccccc4)C(C)=C1C3(C)C)[C@]1(OC(C)=O)CO[C@@H]1C[C@@H]2O", "pIC50": 10.00}
{"molecule": "C[C@H]1[C@@H](CCCCNC(=O)CC[C@H]2O[C@H]3O[C@@]4(C)CC[C@H]5[C@H](C)CC[C@@H]([C@H]2C)[C@@]35OO4)O[C@H]2O[C@@]3(C)CC[C@H]4[C@H](C)CC[C@@H]1[C@@]24OO3", "pIC50": 4.52}
{"molecule": "C[C@@H]1CC[C@H]2[C@@H](C)C(CCS(=O)(=O)CCC3O[C@@H]4O[C@]5(C)CC[C@@H]6[C@@H](C)CC[C@H]([C@@H]3C)[C@]46OO5)O[C@H]3O[C@@]4(C)CC[C@@H]1[C@]32OO4 (stereo partly specified)", "pIC50": 6.24}

GET /value?item= C[C@@H]1CC[C@H]2[C@@H](C)C(OCCN/C(=N/c3ccc(Cl)cc3)NCCOC3O[C@@H]4O[C@]5(C)CC[C@@H]6[C@@H](C)CC[C@H]([C@@H]3C)[C@]46OO5)O[C@H]3O[C@@]4(C)CC[C@@H]1[C@]32OO4 (stereo partly specified) &field=pIC50 returns 7.00

GET /value?item= C[C@@H]1CC[C@H]2[C@@H](C)C(CCS(=O)(=O)CCCS(=O)(=O)CCC3O[C@@H]4O[C@]5(C)CC[C@@H]6[C@@H](C)CC[C@H]([C@@H]3C)[C@]46OO5)O[C@H]3O[C@@]4(C)CC[C@@H]1[C@]32OO4 (stereo partly specified) &field=pIC50 returns 6.30

GET /value?item= C[C@@H]1CC[C@H]2[C@@H](C)C(OCCN/C(=N/c3ccc(OC(F)(F)F)cc3)NCCOC3O[C@@H]4O[C@]5(C)CC[C@@H]6[C@@H](C)CC[C@H]([C@@H]3C)[C@]46OO5)O[C@H]3O[C@@]4(C)CC[C@@H]1[C@]32OO4 (stereo partly specified) &field=pIC50 returns 6.62

GET /value?item= C[C@@H]1CC[C@H]2[C@@H](C)C(OCCN/C(=N/c3cccc(F)c3)NCCOC3O[C@@H]4O[C@]5(C)CC[C@@H]6[C@@H](C)CC[C@H]([C@@H]3C)[C@]46OO5)O[C@H]3O[C@@]4(C)CC[C@@H]1[C@]32OO4 (stereo partly specified) &field=pIC50 returns 7.05

GET /value?item= C[C@@H]1CC[C@H]2[C@@H](C)C(OCCN/C(=N/c3cccc(Br)c3)NCCOC3O[C@@H]4O[C@]5(C)CC[C@@H]6[C@@H](C)CC[C@H]([C@@H]3C)[C@]46OO5)O[C@H]3O[C@@]4(C)CC[C@@H]1[C@]32OO4 (stereo partly specified) &field=pIC50 returns 6.40

GET /value?item= C[C@@H]1CC[C@H]2[C@@H](C)C(CCNC(=O)CCC(N)C(=O)NCCC3O[C@H]4O[C@@]5(C)CC[C@H]6[C@H](C)CC[C@@H]([C@H]3C)[C@@]46OO5)O[C@H]3O[C@@]4(C)CC[C@@H]1[C@]32OO4 (stereo partly specified) &field=pIC50 returns 5.05

GET /value?item= C[C@@H]1CC[C@H]2[C@@H](C)C(OCCN/C(=N/c3cccc(Cl)c3)NCCOC3O[C@@H]4O[C@]5(C)CC[C@@H]6[C@@H](C)CC[C@H]([C@@H]3C)[C@]46OO5)O[C@H]3O[C@@]4(C)CC[C@@H]1[C@]32OO4 (stereo partly specified) &field=pIC50 returns 7.00
